Target: PTPN2 (HiBIT-PTPN2 in 293T.109 cells) (Homo sapiens, UniProt P17706)
Construct: expressed in transfected cells; host or cells: 293T.109 (293T WT from ATCC)
Sequence (P17706 1-415): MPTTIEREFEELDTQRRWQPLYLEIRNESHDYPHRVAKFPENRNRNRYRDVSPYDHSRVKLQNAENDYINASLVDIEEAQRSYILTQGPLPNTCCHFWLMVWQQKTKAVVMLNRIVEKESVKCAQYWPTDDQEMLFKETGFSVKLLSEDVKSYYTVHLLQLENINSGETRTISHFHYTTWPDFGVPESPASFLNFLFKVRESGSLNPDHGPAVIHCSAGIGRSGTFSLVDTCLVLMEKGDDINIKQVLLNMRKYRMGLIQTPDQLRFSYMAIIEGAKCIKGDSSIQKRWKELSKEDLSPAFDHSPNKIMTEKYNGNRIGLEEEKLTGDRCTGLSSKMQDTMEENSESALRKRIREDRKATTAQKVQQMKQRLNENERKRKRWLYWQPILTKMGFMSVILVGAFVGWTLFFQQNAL
Experiment: HiBiT Degradation 293T.109 PTPN2 (Nano-Glo HiBiT Lytic Assay)
Format: cell-based
Details: 24.0 hours
Procedure: Dulbecco's modified Eagle medium (DMEM) without phenol red and fetal bovine serum (FBS) were purchased from Gibco (Grand Island, NY, USA). Nano-Glo® HiBIT Lytic Assay System was purchased from Promega (Madison, WI, USA). […] PTPN2 degradation was determined based on quantification of luminescent signal using Nano-Glo® HiBIT Lytic Assay kit. […] Luminescence was acquired on EnVision™ Multilabel Reader (PerkinElmer, Santa Clara, CA, USA).
property name: DC50

Some compounds with known DC50 results, for comparison:
CC1(C)C[C@@H](Nc2cccc(-c3sc(C(=O)O)c(OCC(=O)O)c3Cl)c2)CCN1S(=O)(=O)Cc1cccc(NC(=O)N2CCC(C(=O)NCc3cccc4c3CN(C3CCC(=O)NC3=O)C4=O)CC2)c1 (some centres unmarked)    200 to 1000 nM
CN(C(=O)CCN1CCC(Nc2cccc3c2CN(C2CCC(=O)NC2=O)C3=O)CC1)c1cccc(CS(=O)(=O)N2CCC(Nc3cccc(-c4sc(C(=O)O)c(OCC(=O)O)c4Cl)c3)CC2(C)C)c1 (centres unmarked)    50 to 200 nM
Cn1c(=O)n(C2CCC(=O)NC2=O)c2ccc(C3CCN(C(=O)Nc4cccc(CS(=O)(=O)N5CC[C@H](Nc6cccc(-c7sc(C(=O)O)c(OCC(=O)O)c7Cl)c6)CC5(C)C)c4)CC3(F)F)cc21 (some centres unmarked)    < 50 nM
O=C(O)COc1c(C(=O)O)sc(-c2cccc(NC3CCN(S(=O)(=O)Cc4cccc(NC(=O)CCOCCCc5cccc6c5C(=O)N(C5CCC(=O)NC5=O)C6=O)c4)CC3)c2)c1Cl (centres unmarked)    200 to 1000 nM

# input for lookup
Inquiry: Item under review: O=C(O)COc1c(C(=O)O)sc(-c2cccc(NC3CCN(S(=O)(=O)Cc4cccc(NC(=O)N5CCC(c6ccc7c8c(cccc68)C(=O)N7C6CCC(=O)NC6=O)CC5)c4)CC3)c2)c1Cl (centres unmarked) . Reported DC50?
Reply text: 50 to 200 nM

====

target: PTPN2 (B16F10.4 cells) (Mus musculus, UniProt Q06180); construct: HiBiT; host or cells: B16F10.4; assay: HiBiT Degradation B16F10.4 PTPN2; format: cell-based; details: 24.0 hours
Sequence (Q06180 whole entry): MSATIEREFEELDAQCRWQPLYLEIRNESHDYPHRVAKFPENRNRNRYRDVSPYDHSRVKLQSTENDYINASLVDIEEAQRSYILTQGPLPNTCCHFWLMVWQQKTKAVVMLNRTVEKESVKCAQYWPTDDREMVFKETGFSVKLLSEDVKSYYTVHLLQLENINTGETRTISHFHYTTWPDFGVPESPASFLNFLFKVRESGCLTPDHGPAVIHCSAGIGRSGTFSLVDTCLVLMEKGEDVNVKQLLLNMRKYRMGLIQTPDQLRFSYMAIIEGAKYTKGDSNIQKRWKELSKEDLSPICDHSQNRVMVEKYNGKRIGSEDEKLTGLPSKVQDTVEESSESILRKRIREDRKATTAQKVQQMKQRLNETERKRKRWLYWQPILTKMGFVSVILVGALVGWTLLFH
Each record here notes measured DC50.

Some compounds with known DC50 results, for comparison:
Cn1c(=O)n(C2CCC(=O)NC2=O)c2ccc(N3CCC(N4CCN(c5cccc(CS(=O)(=O)N6CCC(Nc7cccc(-c8sc(C(=O)O)c(OCC(=O)O)c8Cl)c7)CC6)c5)C4=O)CC3)cc21 (stereo not drawn)    50 to 200 nM
Cn1c(=O)n(C2CCC(=O)NC2=O)c2ccc(C3CCN(C(=O)Nc4cc(CS(=O)(=O)N5CCC(Nc6cccc(-c7sc(C(=O)O)c(OCC(=O)O)c7Cl)c6)CC5(C)C)ccc4F)CC3)cc21 (stereo not drawn)    < 50 nM

Inquiry: Give recorded DC50 with PTPN2 (B16F10.4 cells) (Mus musculus, UniProt Q06180) for the following compound: Cn1c(=O)n(C2CCC(=O)NC2=O)c2ccc(CN3CCN(C(=O)Nc4cccc(CS(=O)(=O)N5CC[C@H](Nc6cccc(-c7sc(C(=O)O)c(OCC(=O)O)c7Cl)c6)CC5(C)C)c4)CC3)cc21 (stereo partly drawn)
Reply text: 200 to 1000 nM

Inquiry: // next record Cn1c(=O)n(C2CCC(=O)NC2=O)c2cc(F)c(C3CCN(C(=O)Nc4cccc(CS(=O)(=O)N5CC[C@H](Nc6cccc(-c7sc(C(=O)O)c(OCC(=O)O)c7Cl)c6)CC5(C)C)c4)CC3)cc21 (stereo partly drawn)
Reply text: 200 to 1000 nM

Inquiry: // next record CN(c1cccc(-c2sc(C(=O)O)c(OCC(=O)O)c2Cl)c1)C1CCN(S(=O)(=O)Cc2cccc(NC(=O)CCn3cc(CNc4cccc5c4C(=O)N(C4CCC(=O)NC4=O)C5=O)nn3)c2)CC1 (stereo not drawn)
Reply text: ≥ 1000 nM

Inquiry: // next record Cn1c(=O)n(C2CCC(=O)NC2=O)c2ccc(CC3CCN(C(=O)Nc4cccc(CS(=O)(=O)N5CC[C@H](Nc6cccc(-c7sc(C(=O)O)c(OCC(=O)O)c7Cl)c6)CC5(C)C)c4)CC3)cc21 (stereo partly drawn)
Reply text: < 50 nM

Inquiry: // next record Cn1nc(C2CCC(=O)NC2=O)c2ccc(CCC(=O)Nc3cccc(CS(=O)(=O)N4CCC(Nc5cccc(-c6sc(C(=O)O)c(OCC(=O)O)c6Cl)c5)CC4)c3)cc21 (stereo not drawn)
Reply text: 200 to 1000 nM

Inquiry: // next record CC1(C)C[C@@H](Nc2cccc(-c3sc(C(=O)O)c(OCC(=O)O)c3Cl)c2)CCN1S(=O)(=O)Cc1cccc(NC(=O)N2CCC(c3ccc4c5c(cccc35)C(=O)N4[C@H]3CCC(=O)NC3=O)CC2)c1 (single isomer, unassigned) [Example 187b]
Reply text: < 50 nM

Inquiry: // next record Cn1c(=O)n(C2CCC(=O)NC2=O)c2ccc(C3CCN(C(=O)Nc4cccc(CS(=O)(=O)N5CC[C@H](Nc6cccc(-c7sc(C(=O)O)c(OCC(=O)O)c7Cl)c6)CC5(C)C)c4)CC3(F)F)cc21 (stereo partly drawn)
Reply text: < 50 nM

====

Molecular target: PTPN2 (HiBIT-PTPN2 in 293T.109 cells) (Homo sapiens)
Construct: expressed in transfected cells; host or cells: 293T.109 (293T WT from ATCC)
Sequence (P17706 1-415): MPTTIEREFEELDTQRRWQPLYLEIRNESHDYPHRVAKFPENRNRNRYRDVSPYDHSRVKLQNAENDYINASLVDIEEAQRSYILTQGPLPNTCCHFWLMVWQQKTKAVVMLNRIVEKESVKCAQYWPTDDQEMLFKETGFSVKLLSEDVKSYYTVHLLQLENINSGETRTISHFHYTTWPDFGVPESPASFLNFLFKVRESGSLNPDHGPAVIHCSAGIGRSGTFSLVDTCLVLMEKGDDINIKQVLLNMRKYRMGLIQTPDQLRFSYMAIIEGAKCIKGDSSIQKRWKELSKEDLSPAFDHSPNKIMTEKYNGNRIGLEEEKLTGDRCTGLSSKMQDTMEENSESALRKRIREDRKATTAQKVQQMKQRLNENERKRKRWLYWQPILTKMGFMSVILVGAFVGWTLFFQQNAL
Experiment: HiBiT Degradation 293T.109 PTPN2 (Nano-Glo HiBiT Lytic Assay)
Type: cell-based
Settings: 24.0 hours
property name: DC50

CCn1nc(C2CCC(=O)NC2=O)c2ccc(C3CCN(C(=O)Nc4cccc(CS(=O)(=O)N5CC[C@H](Nc6cccc(-c7sc(C(=O)O)c(OCC(=O)O)c7Cl)c6)CC5(C)C)c4)CC3(F)F)cc21 (stereo partly drawn)    50 to 200 nM
O=C(O)COc1c(C(=O)O)sc(-c2cccc(NC3CCN(S(=O)(=O)Cc4cccc(NC(=O)CCOCCOCCCc5cccc6c5C(=O)N(C5CCC(=O)NC5=O)C6=O)c4)CC3)c2)c1Cl (stereo not drawn)    200 to 1000 nM
CC1(C)C[C@@H](Nc2cccc(-c3sc(C(=O)O)c(OCC(=O)O)c3Cl)c2)CCN1S(=O)(=O)Cc1cccc(NC(=O)CCCNC(=O)CNc2cccc3c2CN(C2CCC(=O)NC2=O)C3=O)c1 (stereo partly drawn)    200 to 1000 nM
Cn1c(=O)n(C2CCC(=O)NC2=O)c2ccc(C3CCN(C(=O)Nc4cccc(CS(=O)(=O)N5CC[C@H](Nc6cccc(-c7sc(C(=O)O)c(OCC(=O)O)c7Cl)c6)CC5(C)C)c4)CC3F)cc21 (stereo partly drawn)    < 50 nM

Inquiry: Item under review: Cc1nn(C2CCC(=O)NC2=O)c2ccc(C3CCN(C(=O)Nc4cccc(CS(=O)(=O)N5CC[C@H](Nc6cccc(-c7sc(C(=O)O)c(OCC(=O)O)c7Cl)c6)CC5(C)C)c4)CC3)cc12 (stereo partly drawn) . Reported DC50?
Reply text: 200 to 1000 nM

Inquiry: // next record CC1(C)C[C@@H](Nc2cccc(-c3sc(C(=O)O)c(OCC(=O)O)c3Cl)c2)CCN1S(=O)(=O)Cc1cccc(NC(=O)N2CCC(c3ccc4c(c3)C3(CC3)C(=O)N4C3CCC(=O)NC3=O)CC2)c1 (stereo partly drawn)
Reply text: 50 to 200 nM

Inquiry: // next record CC1(C)C[C@@H](Nc2cccc(-c3sc(C(=O)O)c(OCC(=O)O)c3Cl)c2)CCN1S(=O)(=O)Cc1cccc(NC(=O)N2CCCN(c3ccc4c5c(cccc35)N(C3CCC(=O)NC3=O)C4=O)CC2)c1 (stereo partly drawn)
Reply text: 200 to 1000 nM

Inquiry: // next record Cn1c(=O)n(C2CCC(=O)NC2=O)c2ccc([C@H]3CCN(C(=O)Nc4cccc(CS(=O)(=O)N5CC[C@H](Nc6cccc(-c7sc(C(=O)O)c(OCC(=O)O)c7Cl)c6)CC5(C)C)c4)CC3(F)F)cc21 (stereo partly drawn)
Reply text: 50 to 200 nM

Inquiry: // next record CC1(C)C[C@@H](Nc2cccc(-c3sc(C(=O)O)c(OCC(=O)O)c3Cl)c2)CCN1S(=O)(=O)Cc1cccc(NC(=O)N2CCC(n3c(=O)n(C4CCC(=O)NC4=O)c4ccccc43)CC2)c1 (stereo partly drawn)
Reply text: 200 to 1000 nM
